Quick list: normalized growth per entry.
- PROTOCOL: chemical genetic growth profiling, strain panel (AID 1159580);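 also: tested at 20 µM; growth read once vehicle control cultures reached saturation at 30 °C; 1 = growth at the plate median or of vehicle wells; lower values mean less growth of the strain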
- CONDITIONS_USED: S. cerevisiae deletion strains, growth OD, locus YHR082C, strain KSP1, hits give low values
Hit rate of the full screen: of about 5,500 compounds, about 2,000 (36%) were called active. Inconclusive results (about 18%) are left out. The list shows a part of the results.
EXPERIMENTAL_READOUT: normalized growth

{"MOLECULE": "CC(C)(CCC(C)(C)N1C(=O)c2cccc3cccc(c23)C1=O)N1C(=O)c2cccc3cccc(c23)C1=O", "EXPERIMENTAL_READOUT": "normalized growth", "RESULT": "0.129 (active)"}
{"MOLECULE": "Cc1c(C(=O)N(Cc2ccccc2)Cc2cccs2)cnn1-c1ccc(Cl)cc1", "EXPERIMENTAL_READOUT": "normalized growth", "RESULT": "1.03 (inactive)"}
{"MOLECULE": "OC(CN1CCN(c2nc3ccc(Cl)cc3s2)CC1)Cn1ccc2ccccc21 (stereo not given)", "EXPERIMENTAL_READOUT": "normalized growth", "RESULT": "1.05 (inactive)"}
{"MOLECULE": "Cc1c(-c2ccnn2C(=O)c2ccco2)cnn1-c1ccccc1", "EXPERIMENTAL_READOUT": "normalized growth", "RESULT": "0.953 (inactive)"}
{"MOLECULE": "Cc1nc(-c2ccc(S(=O)(=O)Nc3ccc(Br)cc3Cl)s2)cs1", "EXPERIMENTAL_READOUT": "normalized growth", "RESULT": "0.943 (inactive)"}

----------
- PROTOCOL: chemical genetic growth profiling, strain panel (AID 1159580);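 also: tested at 20 µM; growth read once vehicle control cultures reached saturation at 30 °C; 1 = growth at the plate median or of vehicle wells; lower values mean less growth of the strain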
- CONDITIONS_USED: S. cerevisiae deletion strains, growth OD, locus YOR144C, strain elg1, hits give low values
In all, about 5,500 compounds went through this assay and about 2,000 (36%) were called active. Not shown: some 18% with an inconclusive outcome. The list shows a part of the results.
Quick list: normalized growth per entry.
EXPERIMENTAL_READOUT: normalized growth

{"COMPOUND": "CN1C(C(=O)Nc2ccccn2)=C(O)c2ccccc2S1(=O)=O", "NUMERIC_READOUT": 0.953}
{"COMPOUND": "O=C1NC(=O)C(=O)C(=O)N1", "NUMERIC_READOUT": 0.987}
{"COMPOUND": "CCCNC1CCc2nc(N)sc2C1 (configuration not stated)", "NUMERIC_READOUT": 1.01}
{"COMPOUND": "CC(=O)N[C@@H](CS)C(=O)O", "NUMERIC_READOUT": 1.03}
{"COMPOUND": "NC(CO)C(=O)NNCc1ccc(O)c(O)c1O (configuration not stated)", "NUMERIC_READOUT": 0.987}
{"COMPOUND": "Cc1cc(NC(=O)C2=C(O)c3ccccc3S(=O)(=O)N2C)no1", "NUMERIC_READOUT": 0.956}
{"COMPOUND": "COc1cc([C@@H]2c3cc4c(c(O)c3C[C@H]3COC(=O)[C@@H]32)OCO4)cc(OC)c1OC", "NUMERIC_READOUT": 0.984}
{"COMPOUND": "COc1ccc([C@H]2Oc3cc(OC)cc(OC)c3C[C@H]2O)cc1", "NUMERIC_READOUT": 1}
{"COMPOUND": "Cc1ccc(C)c(OCCCC(C)(C)C(=O)O)c1", "NUMERIC_READOUT": 0.907}
{"COMPOUND": "Oc1ccc2c(c1)OCC1c3cc4c(cc3OC21)OCO4 (configuration not stated)", "NUMERIC_READOUT": 0.986}
{"COMPOUND": "COc1ccc2c(c1OC)C(=O)OC2[C@H]1c2c(cc3c(c2OC)OCO3)CCN1C (some centres not stated)", "NUMERIC_READOUT": 1}
{"COMPOUND": "COc1cc2c(cc1OC)C1Cc3ccc(OC)c(OC)c3CN1CC2 (configuration not stated)", "NUMERIC_READOUT": 0.989}

Where do the numbers come from? From PubChem BioAssay AID1159580.
